Can you tell me protein stability index for the items I'm about to list?
B1: HDAC6 (parent)
chain: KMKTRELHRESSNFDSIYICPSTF

Variants of: B1
Assay: protein stability index of a GFP-peptide fusion (GPS, HEK-293T) (PSI 1-6); higher = more stable;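 note: lentivirally expressed fusions sorted by FACS into six bins by GFP to DsRed ratio, PSI derived from sequencing read proportions per bin multiplied by bin number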
Conditions: c terminus: a fixed tail appended
Respond numerically, and do not add a unit to the figure.

If you can, please state the reported protein stability index value of C20Q .
3.13

If you can, please state the reported protein stability index value of S12I .
1.94

If you can, please state the reported protein stability index value of S22W .
3.05

If you can, please state the reported protein stability index value of T4P .
2.05

If you can, please state the reported protein stability index value of E10H .
1.87

If you can, please state the reported protein stability index value of R5W .
1.72

If you can, please state the reported protein stability index value of Y18F .
2.05

If you can, please state the reported protein stability index value of S16H .
1.99

If you can, please state the reported protein stability index value of F24W .
2.65

If you can, please state the reported protein stability index value of N13M .
2.58

If you can, please state the reported protein stability index value of S12L .
1.83

If you can, please state the reported protein stability index value of M2T .
2.59

If you can, please state the reported protein stability index value of M2L .
1.99

If you can, please state the reported protein stability index value of S16N .
1.31

If you can, please state the reported protein stability index value of R5P .
2.36

If you can, please state the reported protein stability index value of K1H .
1.9

If you can, please state the reported protein stability index value of Y18R .
2.52

If you can, please state the reported protein stability index value of K1V .
2.33

If you can, please state the reported protein stability index value of T23V .
2.92

If you can, please state the reported protein stability index value of I17N .
2.9

If you can, please state the reported protein stability index value of E6C .
1.31

If you can, please state the reported protein stability index value of S11E .
2.2

If you can, please state the reported protein stability index value of C20K .
2.15

If you can, please state the reported protein stability index value of M2D .
2.75

If you can, please state the reported protein stability index value of K1G .
2.29

If you can, please state the reported protein stability index value of E6T .
3.12

If you can, please state the reported protein stability index value of K3R .
2.42

If you can, please state the reported protein stability index value of K3C .
2.43

If you can, please state the reported protein stability index value of C20H .
2.94

If you can, please state the reported protein stability index value of L7R .
3.2

If you can, please state the reported protein stability index value of H8A .
1.98

If you can, please state the reported protein stability index value of Y18M .
2.4

If you can, please state the reported protein stability index value of T23D .
2.56

If you can, please state the reported protein stability index value of S11H .
3.04

If you can, please state the reported protein stability index value of H8T .
2.21

If you can, please state the reported protein stability index value of H8Q .
2.92

If you can, please state the reported protein stability index value of E6S .
2.2

If you can, please state the reported protein stability index value of C20T .
2.76

If you can, please state the reported protein stability index value of F24A .
3.73

If you can, please state the reported protein stability index value of L7K .
3.11

If you can, please state the reported protein stability index value of N13L .
1.74

If you can, please state the reported protein stability index value of T23Y .
1.83

If you can, please state the reported protein stability index value of S11D .
2.54

If you can, please state the reported protein stability index value of S11T .
2.41

If you can, please state the reported protein stability index value of R9A .
2.27

If you can, please state the reported protein stability index value of N13R .
3.21
